From: ChEMBL document CHEMBL5244239

EXPERIMENTAL_SYSTEM: MecA (Staphylococcus aureus, UniProt Q7DHH4)
Sequence (Q7DHH4 whole entry): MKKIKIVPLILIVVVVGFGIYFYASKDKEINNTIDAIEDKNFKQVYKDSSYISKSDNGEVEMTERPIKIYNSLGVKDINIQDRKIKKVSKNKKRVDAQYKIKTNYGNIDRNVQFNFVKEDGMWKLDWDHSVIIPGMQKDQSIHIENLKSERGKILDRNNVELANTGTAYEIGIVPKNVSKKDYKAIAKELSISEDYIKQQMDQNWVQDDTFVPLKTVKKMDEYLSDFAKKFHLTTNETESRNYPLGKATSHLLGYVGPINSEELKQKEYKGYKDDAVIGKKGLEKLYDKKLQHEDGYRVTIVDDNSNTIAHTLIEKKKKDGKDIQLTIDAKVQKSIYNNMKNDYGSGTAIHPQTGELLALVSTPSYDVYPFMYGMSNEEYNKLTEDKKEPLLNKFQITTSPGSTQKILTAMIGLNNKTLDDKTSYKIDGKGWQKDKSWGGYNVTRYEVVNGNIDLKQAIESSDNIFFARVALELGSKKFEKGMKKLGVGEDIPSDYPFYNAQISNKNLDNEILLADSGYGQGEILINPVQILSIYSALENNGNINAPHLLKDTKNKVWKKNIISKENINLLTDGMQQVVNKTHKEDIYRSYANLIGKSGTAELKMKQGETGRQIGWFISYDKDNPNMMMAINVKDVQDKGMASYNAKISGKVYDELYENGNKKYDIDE
ASSAY: Binding affinity to Staphylococcus aureus ATCC 43300 PBP2a
I'd be grateful if you could share measured IC50 for these entries.
Write the number in µM without appending the unit.

Returns the measured IC50 for the input compound. Input: CCCOc1cccc(C(=O)Nc2ccc(Br)cc2C(=O)O)c1 230

Given the entry CCCCOc1ccc2cc(S(=O)(=O)Nc3ccccc3C(=O)O)ccc2c1 , report its measured IC50. 97

What does the record list as IC50 for CCCOc1ccc2cc(C(=O)Nc3ccc(Br)cc3C(=O)O)ccc2c1 ? 210

Name the recorded IC50 for CCCOc1cccc(C(=O)Nc2ccccc2C(=O)O)c1 . 910

// lookup IC50 for CCCOc1cccc(C(=O)Nc2ccc(C)cc2C(=O)O)c1 680
